Test: clinical
Settings: human, in vivo, po, 20 mg, AUC0 − 24 (h*ng/mL) (mean, SD)
measure: AUC(0-t) (ng·h/mL)

>>> test_value("Cc1c(NS(=O)(=O)c2c(Cl)cc(-c3ccnc(N4CCNCC4)c3)cc2Cl)c(CC(C)C)nn1C")
1580

----------
Assay: clinical
Settings: human, in vivo, po, 70 mg, t1/2 (h) (mean, SD)
measure: half-life (h)

>>> test_value("Cc1c(NS(=O)(=O)c2c(Cl)cc(-c3ccnc(N4CCNCC4)c3)cc2Cl)c(CC(C)C)nn1C")
9.5

----------
Assay: clinical
Conditions: human, in vivo, po, 210 mg, t1/2 (h) (mean, SD)
measure: half-life (h)

>>> test_value("Cc1c(NS(=O)(=O)c2c(Cl)cc(-c3ccnc(N4CCNCC4)c3)cc2Cl)c(CC(C)C)nn1C")
7.8
